Test: Multiple-ascending-dose phase 1 study: plasma and urine pharmacokinetics
Format: in vivo, humans
Conditions: human, urine, iv, urine, LC-MS/MS; read-out: amount of CD101 excreted in urine
Numbered stars: 1 amine (or outer) side, 2 acyl side, 3 side chain; on linkers, the order of the positions; unused ones are H or OH. Bridge positions count the residues as written; N and C are the ends. Square brackets hold non-standard residues; d marks the D form. Peptide text beside a SMILES is read from it. * marks the point of attachment. Orn(4R-OH,5R-OCH2CH2NMe3+) = C[N+](C)(C)CCO[C@@H](N[*:3])[C@H](O)C[C@H](N[*:1])C(=O)[*:2]; pTerphenylCO(4''-OnC5H11) = CCCCCOc1ccc(-c2ccc(-c3ccc(C(=O)*)cc3)cc2)cc1; hTyr(3S-OH,4S-OH) = N[C@H](C(=O)O)[C@H](O)[C@@H](O)c1ccc(O)cc1; Pro(3S-OH,4S-Me) = C[C@H]1CN[C@H](C(=O)O)[C@H]1O; Hyp = O=C(O)[C@@H]1C[C@@H](O)CN1
ASSAY_METRIC: dose excreted

[[record]]
compound = "CCCCCOc1ccc(-c2ccc(-c3ccc(C(=O)N[C@H]4C[C@@H](O)[C@@H](OCC[N+](C)(C)C)NC(=O)[C@@H]5[C@@H](O)[C@@H](C)CN5C(=O)[C@H]([C@@H](C)O)NC(=O)[C@H]([C@H](O)[C@@H](O)c5ccc(O)cc5)NC(=O)[C@@H]5C[C@@H](O)CN5C(=O)[C@H]([C@@H](C)O)NC4=O)cc3)cc2)cc1 [CD101] ({pTerphenylCO(4''-OnC5H11)}-[Orn(4R-OH,5R-OCH2CH2NMe3+)]T[Hyp][hTyr(3S-OH,4S-OH)]T[Pro(3S-OH,4S-Me)]; lactam 1-C)"
assay_metric = "dose excreted"
recorded_result = "≤ 0.26%"


----------
Assay: Single-ascending-dose phase 1 study: plasma and urine pharmacokinetics
Type: in vivo, humans
Conditions: human; single 400 mg IV infusion over 1 h, plasma, arithmetic mean
Numbered stars: 1 amine (or outer) side, 2 acyl side, 3 side chain; on linkers, the order of the positions; unused ones are H or OH. Bridge positions count the residues as written; N and C are the ends. Square brackets hold non-standard residues; d marks the D form. Peptide text beside a SMILES is read from it. * marks the point of attachment. Orn(4R-OH,5R-OCH2CH2NMe3+) = C[N+](C)(C)CCO[C@@H](N[*:3])[C@H](O)C[C@H](N[*:1])C(=O)[*:2]; pTerphenylCO(4''-OnC5H11) = CCCCCOc1ccc(-c2ccc(-c3ccc(C(=O)*)cc3)cc2)cc1; hTyr(3S-OH,4S-OH) = N[C@H](C(=O)O)[C@H](O)[C@@H](O)c1ccc(O)cc1; Pro(3S-OH,4S-Me) = C[C@H]1CN[C@H](C(=O)O)[C@H]1O; Hyp = O=C(O)[C@@H]1C[C@@H](O)CN1
ASSAY_METRIC: clearance (mL/min)

[[record]]
compound = "CCCCCOc1ccc(-c2ccc(-c3ccc(C(=O)N[C@H]4C[C@@H](O)[C@@H](OCC[N+](C)(C)C)NC(=O)[C@@H]5[C@@H](O)[C@@H](C)CN5C(=O)[C@H]([C@@H](C)O)NC(=O)[C@H]([C@H](O)[C@@H](O)c5ccc(O)cc5)NC(=O)[C@@H]5C[C@@H](O)CN5C(=O)[C@H]([C@@H](C)O)NC4=O)cc3)cc2)cc1 [CD101] ({pTerphenylCO(4''-OnC5H11)}-[Orn(4R-OH,5R-OCH2CH2NMe3+)]T[Hyp][hTyr(3S-OH,4S-OH)]T[Pro(3S-OH,4S-Me)]; lactam 1-C)"
measurement_unit = "mL/min"
recorded_result = 3.77


----------
Assay: Multiple-ascending-dose phase 1 study: plasma and urine pharmacokinetics
Format: in vivo, humans
Conditions: human, plasma, iv, 100 mg, 100 mg IV once weekly x2, day 1, arithmetic mean; read-out: Vss
Numbered stars: 1 amine (or outer) side, 2 acyl side, 3 side chain; on linkers, the order of the positions; unused ones are H or OH. Bridge positions count the residues as written; N and C are the ends. Square brackets hold non-standard residues; d marks the D form. Peptide text beside a SMILES is read from it. * marks the point of attachment. Orn(4R-OH,5R-OCH2CH2NMe3+) = C[N+](C)(C)CCO[C@@H](N[*:3])[C@H](O)C[C@H](N[*:1])C(=O)[*:2]; pTerphenylCO(4''-OnC5H11) = CCCCCOc1ccc(-c2ccc(-c3ccc(C(=O)*)cc3)cc2)cc1; hTyr(3S-OH,4S-OH) = N[C@H](C(=O)O)[C@H](O)[C@@H](O)c1ccc(O)cc1; Pro(3S-OH,4S-Me) = C[C@H]1CN[C@H](C(=O)O)[C@H]1O; Hyp = O=C(O)[C@@H]1C[C@@H](O)CN1
ASSAY_METRIC: Vd (L)

[[record]]
compound = "CCCCCOc1ccc(-c2ccc(-c3ccc(C(=O)N[C@H]4C[C@@H](O)[C@@H](OCC[N+](C)(C)C)NC(=O)[C@@H]5[C@@H](O)[C@@H](C)CN5C(=O)[C@H]([C@@H](C)O)NC(=O)[C@H]([C@H](O)[C@@H](O)c5ccc(O)cc5)NC(=O)[C@@H]5C[C@@H](O)CN5C(=O)[C@H]([C@@H](C)O)NC4=O)cc3)cc2)cc1 [CD101] ({pTerphenylCO(4''-OnC5H11)}-[Orn(4R-OH,5R-OCH2CH2NMe3+)]T[Hyp][hTyr(3S-OH,4S-OH)]T[Pro(3S-OH,4S-Me)]; lactam 1-C)"
measurement_unit = "L"
recorded_result = 28.8


----------
Experiment: Multiple-ascending-dose phase 1 study: plasma and urine pharmacokinetics
Assay type: in vivo, humans
Details: human, plasma, iv, 400 mg, 400 mg IV once weekly x3, day 1, arithmetic mean; read-out: Vz
Numbered stars: 1 amine (or outer) side, 2 acyl side, 3 side chain; on linkers, the order of the positions; unused ones are H or OH. Bridge positions count the residues as written; N and C are the ends. Square brackets hold non-standard residues; d marks the D form. Peptide text beside a SMILES is read from it. * marks the point of attachment. Orn(4R-OH,5R-OCH2CH2NMe3+) = C[N+](C)(C)CCO[C@@H](N[*:3])[C@H](O)C[C@H](N[*:1])C(=O)[*:2]; pTerphenylCO(4''-OnC5H11) = CCCCCOc1ccc(-c2ccc(-c3ccc(C(=O)*)cc3)cc2)cc1; hTyr(3S-OH,4S-OH) = N[C@H](C(=O)O)[C@H](O)[C@@H](O)c1ccc(O)cc1; Pro(3S-OH,4S-Me) = C[C@H]1CN[C@H](C(=O)O)[C@H]1O; Hyp = O=C(O)[C@@H]1C[C@@H](O)CN1
ASSAY_METRIC: Vd (L)

[[record]]
compound = "CCCCCOc1ccc(-c2ccc(-c3ccc(C(=O)N[C@H]4C[C@@H](O)[C@@H](OCC[N+](C)(C)C)NC(=O)[C@@H]5[C@@H](O)[C@@H](C)CN5C(=O)[C@H]([C@@H](C)O)NC(=O)[C@H]([C@H](O)[C@@H](O)c5ccc(O)cc5)NC(=O)[C@@H]5C[C@@H](O)CN5C(=O)[C@H]([C@@H](C)O)NC4=O)cc3)cc2)cc1 [CD101] ({pTerphenylCO(4''-OnC5H11)}-[Orn(4R-OH,5R-OCH2CH2NMe3+)]T[Hyp][hTyr(3S-OH,4S-OH)]T[Pro(3S-OH,4S-Me)]; lactam 1-C)"
assay_metric = "Vd"
recorded_result = 31.2


----------
Experiment: Multiple-ascending-dose phase 1 study: plasma and urine pharmacokinetics
Format: in vivo, humans
Settings: human, plasma, iv, 200 mg, 200 mg IV once weekly x2, day 1, arithmetic mean; read-out: Vz
Numbered stars: 1 amine (or outer) side, 2 acyl side, 3 side chain; on linkers, the order of the positions; unused ones are H or OH. Bridge positions count the residues as written; N and C are the ends. Square brackets hold non-standard residues; d marks the D form. Peptide text beside a SMILES is read from it. * marks the point of attachment. Orn(4R-OH,5R-OCH2CH2NMe3+) = C[N+](C)(C)CCO[C@@H](N[*:3])[C@H](O)C[C@H](N[*:1])C(=O)[*:2]; pTerphenylCO(4''-OnC5H11) = CCCCCOc1ccc(-c2ccc(-c3ccc(C(=O)*)cc3)cc2)cc1; hTyr(3S-OH,4S-OH) = N[C@H](C(=O)O)[C@H](O)[C@@H](O)c1ccc(O)cc1; Pro(3S-OH,4S-Me) = C[C@H]1CN[C@H](C(=O)O)[C@H]1O; Hyp = O=C(O)[C@@H]1C[C@@H](O)CN1
ASSAY_METRIC: Vd (L)

[[record]]
molecule = "CCCCCOc1ccc(-c2ccc(-c3ccc(C(=O)N[C@H]4C[C@@H](O)[C@@H](OCC[N+](C)(C)C)NC(=O)[C@@H]5[C@@H](O)[C@@H](C)CN5C(=O)[C@H]([C@@H](C)O)NC(=O)[C@H]([C@H](O)[C@@H](O)c5ccc(O)cc5)NC(=O)[C@@H]5C[C@@H](O)CN5C(=O)[C@H]([C@@H](C)O)NC4=O)cc3)cc2)cc1 [CD101] ({pTerphenylCO(4''-OnC5H11)}-[Orn(4R-OH,5R-OCH2CH2NMe3+)]T[Hyp][hTyr(3S-OH,4S-OH)]T[Pro(3S-OH,4S-Me)]; lactam 1-C)"
measurement_unit = "L"
recorded_result = 32.8

